target: HERG channels (Homo sapiens, UniProt Q12809); experiment: HERG selectivity method, whole-cell patch-clamp recordings; details: read-out: Ki in μM ± S.D. (#); HEK 293 cells stably expressing HERG+KCNE1, tail-current block, room temperature; Ki=koff/kon
Sequence (Q12809 whole entry): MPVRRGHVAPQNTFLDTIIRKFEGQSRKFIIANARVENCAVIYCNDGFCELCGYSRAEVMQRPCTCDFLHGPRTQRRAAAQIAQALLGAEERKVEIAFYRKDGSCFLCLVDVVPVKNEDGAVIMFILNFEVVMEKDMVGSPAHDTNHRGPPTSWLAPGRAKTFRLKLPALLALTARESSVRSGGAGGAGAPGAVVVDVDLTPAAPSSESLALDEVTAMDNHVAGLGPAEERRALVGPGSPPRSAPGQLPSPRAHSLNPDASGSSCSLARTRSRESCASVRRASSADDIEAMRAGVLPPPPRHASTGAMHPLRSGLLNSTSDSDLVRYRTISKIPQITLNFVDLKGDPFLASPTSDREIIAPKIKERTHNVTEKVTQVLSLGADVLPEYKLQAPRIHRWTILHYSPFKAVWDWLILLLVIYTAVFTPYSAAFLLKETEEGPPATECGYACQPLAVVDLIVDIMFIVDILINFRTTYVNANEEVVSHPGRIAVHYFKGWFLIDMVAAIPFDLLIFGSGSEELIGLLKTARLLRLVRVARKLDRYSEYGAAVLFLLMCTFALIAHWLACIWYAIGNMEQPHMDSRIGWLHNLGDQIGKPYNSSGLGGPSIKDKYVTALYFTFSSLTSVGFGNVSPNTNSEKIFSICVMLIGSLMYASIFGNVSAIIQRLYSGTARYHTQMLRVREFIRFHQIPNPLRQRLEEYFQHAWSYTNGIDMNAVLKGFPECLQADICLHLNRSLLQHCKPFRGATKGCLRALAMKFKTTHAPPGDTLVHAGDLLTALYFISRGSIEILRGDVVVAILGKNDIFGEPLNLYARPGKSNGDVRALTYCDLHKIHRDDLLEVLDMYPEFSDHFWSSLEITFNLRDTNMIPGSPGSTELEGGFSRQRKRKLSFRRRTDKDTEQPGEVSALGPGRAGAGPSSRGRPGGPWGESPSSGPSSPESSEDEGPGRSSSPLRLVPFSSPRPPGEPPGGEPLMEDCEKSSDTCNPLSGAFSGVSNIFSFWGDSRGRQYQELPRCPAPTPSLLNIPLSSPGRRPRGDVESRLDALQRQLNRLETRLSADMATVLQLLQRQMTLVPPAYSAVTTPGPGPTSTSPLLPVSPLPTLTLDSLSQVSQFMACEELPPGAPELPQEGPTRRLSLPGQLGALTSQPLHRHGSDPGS
measurement name: Ki (µM)
Value expressed in µM; do not type the unit.

Fill in: Ki of CN1CCN(CC/C=C2/c3ccccc3Sc3ccc(S(=O)(=O)N(C)C)cc32)CC1 [Cis-Thiothixene] is ___ 8.6

----------
target: HERG channels (Homo sapiens, UniProt Q12809); assay: HERG selectivity method, whole-cell patch-clamp recordings
measurement name: pKi
FYI, pKi means -log10 of a concentration in mol per litre.

compound	test system	pKi
OCCN1CCN(CCCN2c3ccccc3Sc3ccc(C(F)(F)F)cc32)CC1	HERG channels (Homo sapiens, UniProt Q12809)	5.60

Here's the next entry for you.
Fill in: pKi of CN1CCN(C(c2ccccc2)c2ccc(Cl)cc2)CC1 (centres unmarked) is ___ 5.40

----------
target: HERG channels (Homo sapiens, UniProt Q12809)
measurement name: Ki (nM)
Value expressed in nM; do not type the unit.

Fill in: Ki of O=C(CCCN1CCC(O)(c2ccc(Cl)cc2)CC1)c1ccc(F)cc1 is ___ 170
